# System: DiFi (Colorectal Carcinoma)
# Protocol Text: Bliss excess, mean over the matrix (fraction); higher = more synergy

Compound: CC(=O)c1c(C)c2cnc(Nc3ccc(N4CCNCC4)cn3)nc2n(C2CCCC2)c1=O [Palbociclib] + CN(CC[C@H](CSC1=CC=CC=C1)NC2=C(C=C(C=C2)S(=O)(=O)NC(=O)C3=CC=C(C=C3)N4CCC(CC4)[C@H](C5=CC=CC=C5C6=CC=C(C=C6)Cl)O)S(=O)(=O)C(F)(F)F)CCO [AZD4320] (first compound max 10 µM, 7x7, partner max 1 µM)
Bliss excess: -0.0038

Compound: COc1nnc2ccc(N3CCC(c4ccc(OCCN5CCN(C)C(=O)[C@H]5C)cc4)CC3)nn12 [AZD5153] + Cc1c2c(nn1C)CSCc1cc(n(C)n1)CSc1cc(c3ccccc3c1)OCCCc1c(C(=O)O)n(C)c3c-2c(Cl)ccc13 [AZD5991] (first compound max 1 µM, 7x7, partner max 1 µM)
Bliss excess: -0.0066

Compound: CS(=O)(=O)CCNCc1ccc(-c2ccc3ncnc(Nc4ccc(OCc5cccc(F)c5)c(Cl)c4)c3c2)o1 [Lapatinib] + C[C@@H](Oc1cc(-c2cnn(C3CCNCC3)c2)cnc1N)c1c(Cl)ccc(F)c1Cl [Crizotinib] (first compound max 10 µM, 7x7, partner max 10 µM)
Bliss excess: 0.0187

Compound: COc1cccc2c1C(=O)c1c(O)c3c(c(O)c1C2=O)C[C@@](O)(C(=O)CO)C[C@@H]3O[C@H]1C[C@H](N)[C@H](O)[C@H](C)O1 [Doxorubicin] + Cc1cc2ncnn2cc1Nc1ncc2c(n1)n(C1CCOCC1)c(=O)n2C [AZD7648] (first compound max 1 µM, 7x7, partner max 10 µM)
Bliss excess: 0.051

Compound: COc1nnc2ccc(N3CCC(c4ccc(OCCN5CCN(C)C(=O)[C@H]5C)cc4)CC3)nn12 [AZD5153] + C=CCn1c(=O)c2cnc(Nc3ccc(N4CCN(C)CC4)cc3)nc2n1-c1cccc(C(C)(C)O)n1 [AZD1775] (first compound max 1 µM, partner max 1 µM)
Bliss excess: -0.0761

Compound: COc1cccc(OCCCN)c1-c1cc(Nc2cnc(C#N)cn2)n[nH]1 [Prexasertib] + C=CCn1c(=O)c2cnc(Nc3ccc(N4CCN(C)CC4)cc3)nc2n1-c1cccc(C(C)(C)O)n1 [AZD1775] (first compound max 1 µM, partner max 1 µM)
Bliss excess: 0.0236

Compound: CN(CCO)CC[C@H](CSc1ccccc1)Nc1ccc(S(=O)(=O)NC(=O)c2ccc(N3CCC([C@@H](O)c4ccccc4-c4ccc(Cl)cc4)CC3)cc2)cc1S(=O)(=O)C(F)(F)F [AZD4320] + C[C@@H]1COCCN1C2=NC(=NC(=C2)C3(CC3)[S@](=N)(=O)C)C4=C5C=CNC5=NC=C4 [AZD6738] (first compound max 1 µM, 7x7, partner max 10 µM)
Bliss excess: -0.0044

---

# System: TE-6 (Esophageal Squamous Cell Carcinoma)
# Protocol Text: Bliss excess, mean over the matrix (fraction); higher = more synergy
The compounds listed here are annotated with their Bliss excess.

Compound: Cc1c2c(nn1C)CSCc1cc(n(C)n1)CSc1cc(c3ccccc3c1)OCCCc1c(C(=O)O)n(C)c3c-2c(Cl)ccc13 [AZD5991] + CN(C)CCCOc1ccc(-c2ccc3ncc4c(c3c2)n(C2CCOCC2)c(=O)n4C)cn1 [AZD0156] (first compound max 1 µM, 7x7, partner max 1 µM)
Measured Target: TE-6 (Esophageal Squamous Cell Carcinoma)
Bliss excess: -0.0167
//
Compound: C[C@@H]1COCCN1c1cc(C2([S@](C)(=N)=O)CC2)nc(-c2ccnc3[nH]ccc23)n1 [AZD6738] + O=C(c1cc(Cc2n[nH]c(=O)c3ccccc23)ccc1F)N1CCN(C(=O)C2CC2)CC1 [Olaparib] (first compound max 10 µM, 7x7, partner max 10 µM)
Measured Target: TE-6 (Esophageal Squamous Cell Carcinoma)
Bliss excess: -0.0172
//
Compound: CN(CCO)CC[C@H](CSc1ccccc1)Nc1ccc(S(=O)(=O)NC(=O)c2ccc(N3CCC([C@@H](O)c4ccccc4-c4ccc(Cl)cc4)CC3)cc2)cc1S(=O)(=O)C(F)(F)F [AZD4320] + Cn1cnc2c(F)c(Nc3ccc(Br)cc3Cl)c(C(=O)NOCCO)cc21 [Selumetinib] (first compound max 1 µM, 7x7, partner max 3 µM)
Measured Target: TE-6 (Esophageal Squamous Cell Carcinoma)
Bliss excess: -0.0277

---

The molecules listed here are annotated with their combination Emax.
# Test system: WIL2-NS (Non-Cancerous)
# Protocol Text: combination Emax (second highest fraction inhibited in the dose matrix, 72 h); higher = more inhibition; extreme values may be limits of the assay

Molecule: CN(C)CCCOc1ccc(-c2ccc3ncc4c(c3c2)n(C2CCOCC2)c(=O)n4C)cn1 [AZD0156] + O=C(c1cc(Cc2n[nH]c(=O)c3ccccc23)ccc1F)N1CCN(C(=O)C2CC2)CC1 [Olaparib] (first compound max 3 µM, partner max 3 µM)
combination Emax: 0.6

Molecule: COc1nnc2ccc(N3CCC(c4ccc(OCCN5CCN(C)C(=O)[C@H]5C)cc4)CC3)nn12 [AZD5153] + Cn1cnc2c(F)c(Nc3ccc(Br)cc3Cl)c(C(=O)NOCCO)cc21 [Selumetinib] (first compound max 1 µM, 7x7, partner max 10 µM)
combination Emax: 0.881

Molecule: Cc1c2c(nn1C)CSCc1cc(n(C)n1)CSc1cc(c3ccccc3c1)OCCCc1c(C(=O)O)n(C)c3c-2c(Cl)ccc13 [AZD5991] + CN(C)CCCOc1ccc(-c2ccc3ncc4c(c3c2)n(C2CCOCC2)c(=O)n4C)cn1 [AZD0156] (first compound max 1 µM, 7x7, partner max 1 µM)
combination Emax: 0.388

Molecule: CC1(C)CCC(CN2CCN(c3ccc(C(=O)NS(=O)(=O)c4ccc(NCC5CCOCC5)c([N+](=O)[O-])c4)c(Oc4cnc5[nH]ccc5c4)c3)CC2)=C(c2ccc(Cl)cc2)C1 [Venetoclax] + CN(C)CCCOc1ccc(-c2ccc3ncc4c(c3c2)n(C2CCOCC2)c(=O)n4C)cn1 [AZD0156] (first compound max 1 µM, 7x7, partner max 1 µM)
combination Emax: 0.804

Molecule: CN(CCO)CC[C@H](CSc1ccccc1)Nc1ccc(S(=O)(=O)NC(=O)c2ccc(N3CCC([C@@H](O)c4ccccc4-c4ccc(Cl)cc4)CC3)cc2)cc1S(=O)(=O)C(F)(F)F [AZD4320] + Cc1cc2ncnn2cc1Nc1ncc2c(n1)n(C1CCOCC1)c(=O)n2C [AZD7648] (first compound max 1 µM, 7x7, partner max 10 µM)
combination Emax: 0.335

Molecule: CC1(C)CCC(CN2CCN(c3ccc(C(=O)NS(=O)(=O)c4ccc(NCC5CCOCC5)c([N+](=O)[O-])c4)c(Oc4cnc5[nH]ccc5c4)c3)CC2)=C(c2ccc(Cl)cc2)C1 [Venetoclax] + C[C@@H](Nc1cc(F)cc(F)c1)c1cc(C(=O)N(C)C)cc2c(=O)cc(N3CCOCC3)oc12 [AZD8186] (first compound max 1 µM, 7x7, partner max 3 µM)
combination Emax: 0.772

Molecule: CN(CCO)CC[C@H](CSc1ccccc1)Nc1ccc(S(=O)(=O)NC(=O)c2ccc(N3CCC([C@@H](O)c4ccccc4-c4ccc(Cl)cc4)CC3)cc2)cc1S(=O)(=O)C(F)(F)F [AZD4320] + Nc1ccn([C@@H]2O[C@H](CO)[C@@H](O)C2(F)F)c(=O)n1 [Gemcitabine] (first compound max 1 µM, 7x7, partner max 0.3 µM)
combination Emax: 0.987

Molecule: C[C@@H]1COCCN1c1cc(C2([S@](C)(=N)=O)CC2)nc(-c2ccnc3[nH]ccc23)n1 [AZD6738] + Nc1ccn([C@@H]2O[C@H](CO)[C@@H](O)C2(F)F)c(=O)n1 [Gemcitabine] (first compound max 10 µM, 7x7, partner max 0.3 µM)
combination Emax: 0.985

---

# Test system: NCI-H2818 (Mesothelioma)
# Protocol Text: Bliss excess, mean over the matrix (fraction); higher = more synergy
Measured Property: Bliss excess

Molecule: COc1cccc(OCCCN)c1-c1cc(Nc2cnc(C#N)cn2)n[nH]1 [Prexasertib] + CCc1c2c(nc3ccc(O)cc13)-c1cc3c(c(=O)n1C2)COC(=O)[C@]3(O)CC [SN-38] (first compound max 1 µM, 7x7, partner max 0.3 µM)
Measured Property: Bliss excess
Observed Value: -0.0745

Molecule: CN(C)CCCOc1ccc(-c2ccc3ncc4c(c3c2)n(C2CCOCC2)c(=O)n4C)cn1 [AZD0156] + CCN(CCO)CCCOc1ccc2c(Nc3cc(CC(=O)Nc4cccc(F)c4)[nH]n3)ncnc2c1 [AZD2811] (first compound max 1 µM, 7x7, partner max 1 µM)
Measured Property: Bliss excess
Observed Value: -0.0491

Molecule: COc1cccc(OCCCN)c1-c1cc(Nc2cnc(C#N)cn2)n[nH]1 [Prexasertib] + Cc1cc2ncnn2cc1Nc1ncc2c(n1)n(C1CCOCC1)c(=O)n2C [AZD7648] (first compound max 1 µM, 7x7, partner max 10 µM)
Measured Property: Bliss excess
Observed Value: -0.032

Molecule: CN(CCO)CC[C@H](CSc1ccccc1)Nc1ccc(S(=O)(=O)NC(=O)c2ccc(N3CCC([C@@H](O)c4ccccc4-c4ccc(Cl)cc4)CC3)cc2)cc1S(=O)(=O)C(F)(F)F [AZD4320] + CCN(CCO)CCCOc1ccc2c(Nc3cc(CC(=O)Nc4cccc(F)c4)[nH]n3)ncnc2c1 [AZD2811] (first compound max 1 µM, 7x7, partner max 1 µM)
Measured Property: Bliss excess
Observed Value: -0.0555
